target system: HLA-A*02:03
test name: IEDB peptide-MHC binding, purified MHC/direct/fluorescence; filed as Kd, often an IC50 or EC50 that approximates it; bounds were set here for any values at or beyond the usual limits of such assays
experimental parameters: source organism: Zaire ebolavirus
pKd: −log10 of the molar value.
endpoint label: pKd

Query :: Can you look up the measured pKd of APFARLLNL for me?
Result :: ≤ 4.70

###

target system: HLA-A*03:01
test name: IEDB peptide-MHC binding, purified MHC/direct/fluorescence; filed as Kd, often an IC50 or EC50 that approximates it; bounds were set here for any values at or beyond the usual limits of such assays
experimental parameters: source organism: Salmonella enterica subsp. enterica serovar Typhimurium
endpoint label: Kd

Query :: Fill in: Kd of NSDYMMWVG is ___
Result :: ≥ 20 µM
